# assay-system: IKZF2 (Homo sapiens, UniProt Q96SW2+Q9UKS7)
# assay-protocol: HEK293 HiBiT in vitro degradation of IKZF2
# Format: cell-based
# Design: expressed in transfected cells
# study-conditions: HEK293 HiBiT, 18-24 hr incubation, normalized to DMSO control; read-out: IKZF2 EC50
# Sequence (Q9UKS7 1-500 isoform Q9UKS7-2): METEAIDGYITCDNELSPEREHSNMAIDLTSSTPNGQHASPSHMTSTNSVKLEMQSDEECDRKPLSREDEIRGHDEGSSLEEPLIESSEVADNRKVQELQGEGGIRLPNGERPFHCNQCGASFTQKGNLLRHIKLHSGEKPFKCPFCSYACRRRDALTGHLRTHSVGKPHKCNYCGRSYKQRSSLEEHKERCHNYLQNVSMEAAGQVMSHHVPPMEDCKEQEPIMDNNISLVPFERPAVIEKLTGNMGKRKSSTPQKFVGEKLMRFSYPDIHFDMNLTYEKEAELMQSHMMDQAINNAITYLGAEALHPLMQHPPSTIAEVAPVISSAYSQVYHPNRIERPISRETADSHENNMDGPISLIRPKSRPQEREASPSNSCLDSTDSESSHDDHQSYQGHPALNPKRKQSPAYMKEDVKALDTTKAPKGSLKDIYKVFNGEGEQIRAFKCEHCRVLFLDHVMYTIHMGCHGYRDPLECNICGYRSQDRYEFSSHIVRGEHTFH
# Sequence (Q96SW2 whole entry): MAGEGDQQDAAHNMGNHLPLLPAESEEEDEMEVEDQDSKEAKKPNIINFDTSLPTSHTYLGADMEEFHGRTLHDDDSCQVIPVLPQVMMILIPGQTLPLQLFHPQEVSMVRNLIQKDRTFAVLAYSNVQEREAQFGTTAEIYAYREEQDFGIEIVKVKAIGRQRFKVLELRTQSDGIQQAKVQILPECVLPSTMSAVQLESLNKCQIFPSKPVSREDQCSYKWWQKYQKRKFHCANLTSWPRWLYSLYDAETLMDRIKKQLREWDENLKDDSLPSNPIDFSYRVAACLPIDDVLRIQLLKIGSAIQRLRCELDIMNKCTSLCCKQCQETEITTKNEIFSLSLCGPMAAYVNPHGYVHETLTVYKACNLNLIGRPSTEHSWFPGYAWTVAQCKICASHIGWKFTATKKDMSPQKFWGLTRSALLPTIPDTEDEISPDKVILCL
# Sequence (Q16531 whole entry partner): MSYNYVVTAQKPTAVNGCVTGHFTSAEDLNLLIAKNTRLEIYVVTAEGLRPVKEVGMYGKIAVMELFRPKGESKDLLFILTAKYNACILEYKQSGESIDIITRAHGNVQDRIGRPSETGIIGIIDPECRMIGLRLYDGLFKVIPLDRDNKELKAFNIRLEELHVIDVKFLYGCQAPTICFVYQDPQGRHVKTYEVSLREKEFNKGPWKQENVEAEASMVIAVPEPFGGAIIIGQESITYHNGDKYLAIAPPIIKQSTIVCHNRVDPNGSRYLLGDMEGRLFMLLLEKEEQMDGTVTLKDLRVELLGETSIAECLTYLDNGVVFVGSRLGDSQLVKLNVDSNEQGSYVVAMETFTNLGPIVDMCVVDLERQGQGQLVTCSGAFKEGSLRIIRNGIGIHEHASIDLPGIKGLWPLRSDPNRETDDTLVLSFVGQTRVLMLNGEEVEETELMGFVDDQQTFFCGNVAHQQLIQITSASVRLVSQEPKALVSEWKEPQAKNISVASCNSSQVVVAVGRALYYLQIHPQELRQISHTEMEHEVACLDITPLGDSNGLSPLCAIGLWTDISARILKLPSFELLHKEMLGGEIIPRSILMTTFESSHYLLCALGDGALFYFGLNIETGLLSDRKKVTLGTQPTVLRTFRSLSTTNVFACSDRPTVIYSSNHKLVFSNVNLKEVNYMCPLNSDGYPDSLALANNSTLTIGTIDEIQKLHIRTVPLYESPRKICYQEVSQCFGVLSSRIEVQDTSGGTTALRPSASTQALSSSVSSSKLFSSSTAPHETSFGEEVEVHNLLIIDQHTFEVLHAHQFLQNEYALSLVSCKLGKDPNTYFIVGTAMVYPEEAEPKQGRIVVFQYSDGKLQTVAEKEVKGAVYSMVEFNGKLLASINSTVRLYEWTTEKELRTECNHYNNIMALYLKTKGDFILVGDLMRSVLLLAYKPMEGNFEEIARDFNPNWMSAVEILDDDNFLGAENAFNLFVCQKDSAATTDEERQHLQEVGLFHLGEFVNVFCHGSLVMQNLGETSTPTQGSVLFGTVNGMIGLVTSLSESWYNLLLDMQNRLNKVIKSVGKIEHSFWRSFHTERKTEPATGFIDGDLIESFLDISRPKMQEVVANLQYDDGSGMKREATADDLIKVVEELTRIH

- compound: "CC1CC[C@H](NC2CCC(F)(F)CC2)[C@@H](Cc2ccc3c(c2)CN(C2CCC(=O)NC2=O)C3=O)C1 (single isomer, unassigned) [Example 325]"
  DC50: "5 nM"
- compound: "COCC1CCC(N[C@H]2CCCO[C@@H]2Cc2ccc3c(c2F)CN(C2CCC(=O)NC2=O)C3=O)CC1 (single isomer, unassigned) [Example 265]"
  DC50: "3 nM"
- compound: "CC(N[C@H]1CCCC[C@@H]1Cc1ccc2c(c1)CN(C1CCC(=O)NC1=O)C2=O)C1CC(F)(F)C1 (single isomer, unassigned) [Example 136]"
  DC50: "4 nM"
- compound: "O=C1CCC(N2Cc3c(ccc(C[C@H]4OCCC[C@@H]4NC4CCCOC4)c3F)C2=O)C(=O)N1 (single isomer, unassigned) [Example 263]"
  DC50: "95 nM"

###

# assay-system: IKZF1 (Homo sapiens, UniProt Q13422+Q96SW2)
# Construct: expressed in transfected cells
# Sequence (Q13422 whole entry, one chain of several): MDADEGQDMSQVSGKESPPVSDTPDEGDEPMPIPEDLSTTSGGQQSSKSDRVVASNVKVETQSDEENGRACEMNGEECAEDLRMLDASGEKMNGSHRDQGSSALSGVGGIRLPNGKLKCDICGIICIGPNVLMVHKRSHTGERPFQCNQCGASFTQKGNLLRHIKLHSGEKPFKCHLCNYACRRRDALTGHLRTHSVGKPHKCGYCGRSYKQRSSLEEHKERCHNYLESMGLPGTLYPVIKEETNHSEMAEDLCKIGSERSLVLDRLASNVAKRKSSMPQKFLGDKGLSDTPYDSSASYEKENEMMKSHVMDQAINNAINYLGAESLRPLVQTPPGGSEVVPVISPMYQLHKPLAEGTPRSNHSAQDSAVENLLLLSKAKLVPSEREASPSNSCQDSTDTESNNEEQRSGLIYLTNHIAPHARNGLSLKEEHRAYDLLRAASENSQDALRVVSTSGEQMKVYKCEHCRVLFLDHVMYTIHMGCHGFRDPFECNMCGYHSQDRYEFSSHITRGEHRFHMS
# assay-protocol: HEK293 HiBiT in vitro degradation of IKZF1
# Format: cell-based
# study-conditions: HEK293 HiBiT, 18-24 hr incubation, normalized to DMSO control; read-out: IKZF1 EC50
Measured DC50, listed per entry.

- compound: "O=C1CCC(N2Cc3c(ccc(C[C@H]4OCCC[C@@H]4NC4CCC(C(F)F)CC4)c3F)C2=O)C(=O)N1 (single isomer, unassigned) [Example 282]"
  assay-system: "IKZF1 (Homo sapiens, UniProt Q13422+Q96SW2)"
  DC50: "> 1 µM"
- compound: "O=C1CCC(N2Cc3cc(C[C@H]4C[C@@H](O)CC[C@@H]4NC4CCC(F)(F)CC4)ccc3C2=O)C(=O)N1 (stereo partly shown)"
  assay-system: "IKZF1 (Homo sapiens, UniProt Q13422+Q96SW2)"
  DC50: "0.226 µM"
- compound: "O=C1CCC(N2Cc3c(ccc(C[C@H]4OCCC[C@@H]4NCC4CC(F)(F)C4)c3F)C2=O)C(=O)N1 (stereo partly shown)"
  assay-system: "IKZF1 (Homo sapiens, UniProt Q13422+Q96SW2)"
  DC50: "> 0.5 µM"
- compound: "O=C1CCC(N2Cc3c(ccc(C[C@H]4CCCC[C@@H]4NCc4ccccc4)c3F)C2=O)C(=O)N1 (stereo partly shown)"
  assay-system: "IKZF1 (Homo sapiens, UniProt Q13422+Q96SW2)"
  DC50: "> 1 µM"

###

# assay-system: IKZF2 (Homo sapiens, UniProt Q96SW2+Q9UKS7)
# assay-protocol: Human whole blood IKZF2 degradation (flow cytometry, CD4/CD25/Foxp3+ Treg cells)
# Assay type: cell-based
# Design: endogenous in cells
# study-conditions: 24 hrs incubation, IKZF2 MFI in CD4/CD25/Foxp3+ Treg cells, flow cytometry
# Sequence (Q9UKS7 whole entry): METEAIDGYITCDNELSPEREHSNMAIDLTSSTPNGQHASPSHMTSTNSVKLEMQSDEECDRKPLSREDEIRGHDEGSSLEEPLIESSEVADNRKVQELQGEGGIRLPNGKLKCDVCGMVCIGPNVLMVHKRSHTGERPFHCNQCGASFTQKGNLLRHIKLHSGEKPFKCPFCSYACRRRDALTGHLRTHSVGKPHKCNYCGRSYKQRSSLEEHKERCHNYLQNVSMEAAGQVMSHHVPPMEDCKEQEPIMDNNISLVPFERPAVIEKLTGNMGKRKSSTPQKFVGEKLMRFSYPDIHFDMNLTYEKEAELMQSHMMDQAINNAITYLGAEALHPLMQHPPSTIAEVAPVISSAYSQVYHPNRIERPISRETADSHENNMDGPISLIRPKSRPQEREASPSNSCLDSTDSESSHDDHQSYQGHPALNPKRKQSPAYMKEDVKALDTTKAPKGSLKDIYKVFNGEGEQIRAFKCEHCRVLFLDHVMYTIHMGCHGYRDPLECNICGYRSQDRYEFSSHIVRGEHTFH
# Sequence (Q96SW2 whole entry): as the sequence (Q96SW2 whole entry) above
# Sequence (Q16531 whole entry partner): as the sequence (Q16531 whole entry partner) above
Measured Dmax, listed per entry.

- compound: "O=C1CCC(N2Cc3cc(C[C@H]4CCCC[C@@H]4NCC45CC(C4)C5)ccc3C2=O)C(=O)N1 (some centres unmarked)"
  assay-system: "IKZF2 (Homo sapiens, UniProt Q96SW2+Q9UKS7)"
  Dmax [%]: 91
- compound: "O=C1CCC(N2Cc3cc(C[C@H]4CCCC[C@@H]4NC4CCCCCC4)ccc3C2=O)C(=O)N1 (some centres unmarked)"
  assay-system: "IKZF2 (Homo sapiens, UniProt Q96SW2+Q9UKS7)"
  Dmax [%]: 98
- compound: "CC(N[C@H]1CCCC[C@@H]1Cc1ccc2c(c1)CN(C1CCC(=O)NC1=O)C2=O)C1CC(F)(F)C1 (single isomer, unassigned)"
  assay-system: "IKZF2 (Homo sapiens, UniProt Q96SW2+Q9UKS7)"
  Dmax [%]: 97
- compound: "CC(C)(C)CCN[C@H]1CCCC[C@@H]1Cc1ccc2c(c1)CN(C1CCC(=O)NC1=O)C2=O (some centres unmarked)"
  assay-system: "IKZF2 (Homo sapiens, UniProt Q96SW2+Q9UKS7)"
  Dmax [%]: 97
- compound: "CC1(C)CC(N[C@H]2CCCO[C@@H]2Cc2ccc3c(c2F)CN(C2CCC(=O)NC2=O)C3=O)CCO1 (some centres unmarked)"
  assay-system: "IKZF2 (Homo sapiens, UniProt Q96SW2+Q9UKS7)"
  Dmax [%]: 95
- compound: "O=C1CCC(N2Cc3c(ccc(C[C@H]4OCCC[C@@H]4NC4CCC(F)(F)CC4)c3F)C2=O)C(=O)N1 (some centres unmarked)"
  assay-system: "IKZF2 (Homo sapiens, UniProt Q96SW2+Q9UKS7)"
  Dmax [%]: 90
- compound: "O=C1CCC(N2Cc3c(ccc(C[C@H]4OCCC[C@@H]4NC4CCCCC4)c3F)C2=O)C(=O)N1 (some centres unmarked)"
  assay-system: "IKZF2 (Homo sapiens, UniProt Q96SW2+Q9UKS7)"
  Dmax [%]: 99
- compound: "CC(N[C@H]1CCCC[C@@H]1Cc1ccc2c(c1)CN(C1CCC(=O)NC1=O)C2=O)C1(C)CCC1 (some centres unmarked)"
  assay-system: "IKZF2 (Homo sapiens, UniProt Q96SW2+Q9UKS7)"
  Dmax [%]: 101

###

Measured IKZF2 Dmax, listed per entry.
# assay-system: IKZF2 (Homo sapiens, UniProt Q96SW2+Q9UKS7)
# assay-protocol: HEK293 HiBiT in vitro degradation of IKZF2
# Format: cell-based
# Set-up: expressed in transfected cells
# study-conditions: HEK293 HiBiT; maximum degradation at the highest concentration tested
measurement-kind: IKZF2 Dmax (%)

- compound: "O=C1CCC(N2Cc3cc(C[C@H]4CCCC[C@@H]4NC4CCC5(CC4)CC5(F)F)ccc3C2=O)C(=O)N1 (single isomer, unassigned)"
  measurement-kind: "IKZF2 Dmax"
  unit: "%"
  endpoint-result: 98
- compound: "CCC(C)N[C@H]1CCCO[C@@H]1Cc1ccc2c(c1F)CN(C1CCC(=O)NC1=O)C2=O (single isomer, unassigned)"
  measurement-kind: "IKZF2 Dmax"
  unit: "%"
  endpoint-result: 94
- compound: "CC(N[C@H]1CCCO[C@@H]1Cc1ccc2c(c1F)CN(C1CCC(=O)NC1=O)C2=O)C1COC1 (some centres unmarked)"
  measurement-kind: "IKZF2 Dmax"
  unit: "%"
  endpoint-result: 95
- compound: "CC(N[C@H]1CCCC[C@@H]1Cc1ccc2c(c1)CN(C1CCC(=O)NC1=O)C2=O)C1CC(F)(F)C1 (single isomer, unassigned)"
  measurement-kind: "IKZF2 Dmax"
  unit: "%"
  endpoint-result: 97
- compound: "O=C1CCC(N2Cc3c(ccc(C[C@H]4CCCC[C@@H]4NCC4COC4)c3F)C2=O)C(=O)N1 (some centres unmarked)"
  measurement-kind: "IKZF2 Dmax"
  unit: "%"
  endpoint-result: 98
- compound: "O=C1CCC(N2Cc3cc(C[C@H]4OCCC[C@@H]4NC4CCC(C(F)(F)F)CC4)ccc3C2=O)C(=O)N1 (single isomer, unassigned)"
  measurement-kind: "IKZF2 Dmax"
  unit: "%"
  endpoint-result: 89
- compound: "O=C1CCC(N2Cc3cc(C[C@H]4CCCC[C@@H]4NC4CCCC[C@@H]4F)ccc3C2=O)C(=O)N1 (some centres unmarked)"
  measurement-kind: "IKZF2 Dmax"
  unit: "%"
  endpoint-result: 95
- compound: "O=C1CCC(N2Cc3cc(C[C@H]4CC(CO)CC[C@@H]4NC4CCCCC4)ccc3C2=O)C(=O)N1 (single isomer, unassigned) [Example 382]"
  measurement-kind: "IKZF2 Dmax"
  unit: "%"
  endpoint-result: 48
- compound: "CC1(C)CC(N[C@H]2CCCC[C@@H]2Cc2ccc3c(c2)CN(C2CCC(=O)NC2=O)C3=O)CCO1 (some centres unmarked)"
  measurement-kind: "IKZF2 Dmax"
  unit: "%"
  endpoint-result: 96
- compound: "CC(N[C@H]1CCCC[C@@H]1Cc1ccc2c(c1)CN(C1CCC(=O)NC1=O)C2=O)C1(F)CC1 (single isomer, unassigned)"
  measurement-kind: "IKZF2 Dmax"
  unit: "%"
  endpoint-result: 94
- compound: "O=C1CCC(N2Cc3cc(C[C@H]4CCCC[C@@H]4NC4CCC5(CCO5)CC4)ccc3C2=O)C(=O)N1 (some centres unmarked)"
  measurement-kind: "IKZF2 Dmax"
  unit: "%"
  endpoint-result: 98
- compound: "CC(CC(C)(C)C)N[C@H]1CCCC[C@@H]1Cc1ccc2c(c1)CN(C1CCC(=O)NC1=O)C2=O (some centres unmarked) [Example 220]"
  measurement-kind: "IKZF2 Dmax"
  unit: "%"
  endpoint-result: 96
- compound: "CC(N[C@H]1CCCO[C@@H]1Cc1ccc2c(c1F)CN(C1CCC(=O)NC1=O)C2=O)C1CCOCC1 (single isomer, unassigned)"
  measurement-kind: "IKZF2 Dmax"
  unit: "%"
  endpoint-result: 76
- compound: "O=C1CCC(N2Cc3c(ccc(C[C@H]4OCCC[C@@H]4NC4CCCOC4)c3F)C2=O)C(=O)N1 (single isomer, unassigned)"
  measurement-kind: "IKZF2 Dmax"
  unit: "%"
  endpoint-result: 85
